For each of the compounds below, state its MIC.
# Test system: Staphylococcus aureus
# measurement protocol: In vitro antimicrobial activity against Staphylococcus aureus X1
# Type: functional
Give bare numbers, in µg/mL.

Worked cases, answers included:
INSERT INTO assay_data (chemical_smiles, test_target, readout, reading) VALUES
  ('CC[C@H]1OC(=O)C[C@@H](O)[C@H](C)[C@@H](O[C@@H]2O[C@H](C)[C@@H](O[C@H]3C[C@@](C)(O)[C@@H](O)[C@H](C)O3)[C@H](N(C)C)[C@H]2O)[C@@H](CCOc2ccc(OC(C)=O)cc2)C[C@@H](C)C(=O)/C=C/C(C)=C/[C@@H]1CO[C@@H]1O[C@H](C)[C@@H](O)[C@@H](OC)[C@H]1OC', 'Staphylococcus aureus', 'MIC', 0.5),
  ('CC[C@H]1OC(=O)C[C@@H](O)[C@H](C)[C@@H](O[C@@H]2O[C@H](C)[C@@H](O[C@H]3C[C@@](C)(O)[C@@H](O)[C@H](C)O3)[C@H](N(C)C)[C@H]2O)[C@@H](CCN2C(=O)c3ccccc3C2=O)C[C@@H](C)C(=O)/C=C/C(C)=C/[C@@H]1CO', 'Staphylococcus aureus', 'MIC', 64);

Attention now shifts to the item below.
IN: Which MIC reading was recorded for the compound CC[C@H]1OC(=O)C[C@@H](O)[C@H](C)[C@@H](O[C@@H]2O[C@H](C)[C@@H](O[C@H]3C[C@@](C)(O)[C@@H](O)[C@H](C)O3)[C@H](N(C)C)[C@H]2O)[C@@H](CCNCCc2ccccc2)C[C@@H](C)C(=O)/C=C/C(C)=C/[C@@H]1CO ?
OUT: 16

* * *

# System: Streptococcus pyogenes
# measurement protocol: In vitro antimicrobial activity against Streptococcus pyogenes C203
# Assay type: functional
Please assign f whenever MIC is at or above 0.5 µg/mL, and t whenever it is below.

INSERT INTO measurements (chemical_smiles, group) VALUES
  ('CC[C@H]1OC(=O)C[C@@H](O)[C@H](C)[C@@H](O[C@@H]2O[C@H](C)[C@@H](O)[C@H](N(C)C)[C@H]2O)[C@@H](C)C[C@@H](C)C(=O)/C=C/C(C)=C/[C@@H]1CO[C@@H]1O[C@H](C)[C@@H](O)[C@@H](OC)[C@H]1OC', 't'),
  ('CCOC(=O)NN(CC[C@H]1C[C@@H](C)C(=O)/C=C/C(C)=C/[C@H](CO[C@@H]2O[C@H](C)[C@@H](O)[C@@H](OC)[C@H]2OC)[C@@H](CC)OC(=O)C[C@@H](O)[C@H](C)[C@H]1O[C@@H]1O[C@H](C)[C@@H](O[C@H]2C[C@@](C)(O)[C@@H](O)[C@H](C)O2)[C@H](N(C)C)[C@H]1O)C(=O)OCC', 'f'),
  ('CCOC(=O)NN(CC[C@H]1C[C@@H](C)C(=O)/C=C/C(C)=C/[C@H](CO[C@@H]2O[C@H](C)[C@@H](O)[C@@H](OC)[C@H]2OC)[C@@H](CC)OC(=O)C[C@@H](O)[C@H](C)[C@H]1O[C@@H]1O[C@H](C)[C@@H](O)[C@H](N(C)C)[C@H]1O)C(=O)OCC', 'f');

IN: Strictly below 0.5 µg/mL in MIC? CC[C@H]1OC(=O)C[C@@H](O)[C@H](C)[C@@H](O[C@@H]2O[C@H](C)[C@@H](O)[C@H](N(C)C)[C@H]2O)[C@@H](CCOc2ccc(OC)cc2)C[C@@H](C)C(=O)/C=C/C(C)=C/[C@@H]1CO[C@@H]1O[C@H](C)[C@@H](O)[C@@H](OC)[C@H]1OC
OUT: f

IN: Strictly below 0.5 µg/mL in MIC? CC[C@H]1OC(=O)C[C@@H](O)[C@H](C)[C@@H](O[C@@H]2O[C@H](C)[C@@H](O)[C@H](N(C)C)[C@H]2O)[C@@H](CCO)C[C@@H](C)C(=O)/C=C/C(C)=C/[C@@H]1CO[C@@H]1O[C@H](C)[C@@H](O)[C@@H](OC)[C@H]1OC
OUT: f

IN: Strictly below 0.5 µg/mL in MIC? CC[C@H]1OC(=O)C[C@@H](O)[C@H](C)[C@@H](O[C@@H]2O[C@H](C)[C@@H](O[C@H]3C[C@@](C)(O)[C@@H](O)[C@H](C)O3)[C@H](N(C)C)[C@H]2O)[C@@H](CCO)C[C@@H](C)C(=O)/C=C/C(C)=C/[C@@H]1CO
OUT: f
